ASSAY SYSTEM: KRAS-G12D (Homo sapiens, UniProt P01116, G12D)
Construct: endogenous in cells; host or cells: A-427 (ATCC), AGS, AsPc-1, Panc 04.03
Sequence (P01116 1-188 isoform P01116-2 G12D): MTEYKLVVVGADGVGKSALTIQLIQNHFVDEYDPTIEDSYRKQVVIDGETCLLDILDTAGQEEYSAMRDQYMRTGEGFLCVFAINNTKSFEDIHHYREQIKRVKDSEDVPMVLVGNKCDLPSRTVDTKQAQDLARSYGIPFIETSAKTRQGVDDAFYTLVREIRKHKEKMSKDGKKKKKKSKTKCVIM
ASSAY: KRAS-G12D degradation assay (Western Blot), A-427 cells
Type: cell-based
PROTOCOL CONDITIONS: A-427; A427 cells, 24 h; class symbols
Here, each record is paired with measured Dmax data.

COMPOUND: CCc1c(F)ccc2cc(O)cc(-c3ncc4c(N5CC6CCC(C5)N6)nc(OCC5(CN6CCN(CCCC7CCN(C(=O)c8ccc(Cl)c(N9CCC(=O)NC9=O)c8)CC7)CC6)CC5)nc4c3F)c12 [Example 22]
Dmax: 50 to 80%

COMPOUND: C#Cc1c(F)ccc2cc(O)cc(-c3ncc4c(N5CC6CCC(C5)N6)nc(OCC(C)(C)CN5CCN(CC6CCC7(CC6)CCN(C(=O)c6ccc(OC)c(N8CCC(=O)NC8=O)c6)CC7)CC5)nc4c3F)c12 [Example 26]
Dmax: 30 to 50%

COMPOUND: C#Cc1cccc2cc(O)cc(-c3ncc4c(N5CC6CCC(C5)N6)nc(OCC5(CN6CCN(CC7CCC8(CC7)CCN(C(=O)c7ccc(C)c(N9CCC(=O)NC9=O)c7)CC8)CC6)CC5)nc4c3F)c12 [Example 55]
Dmax: 80 to 100%
